# EXPERIMENTAL SYSTEM: hQC (Homo sapiens, UniProt Q16769)
# Sequence (Q16769 29-361): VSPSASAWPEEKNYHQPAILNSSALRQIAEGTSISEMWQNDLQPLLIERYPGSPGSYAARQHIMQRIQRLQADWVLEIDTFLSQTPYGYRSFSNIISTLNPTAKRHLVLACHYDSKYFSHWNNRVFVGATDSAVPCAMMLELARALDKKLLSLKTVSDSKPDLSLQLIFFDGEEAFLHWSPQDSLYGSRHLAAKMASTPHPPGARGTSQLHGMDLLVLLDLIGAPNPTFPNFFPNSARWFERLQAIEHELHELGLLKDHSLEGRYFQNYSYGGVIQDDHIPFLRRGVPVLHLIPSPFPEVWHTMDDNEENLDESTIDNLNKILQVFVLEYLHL
# ASSAY PROCEDURE: Inhibitor assay for glutaminyl cyclase activity (fluorometric, H-Gln-βNA / H-Gln-AMC)
# Format: biochemical
# TEST CONTEXT: read-out: IC50
VALUE KIND: pIC50
Field pIC50 (float): negative decimal logarithm of the concentration in molar.

Exercise: Which pIC50 value is on record for CCCCCC1C(CC)=C(O)C(=O)N1CCCn1ccnc1 (centres unmarked) ?
Solution: 7.40

Exercise: Would you mind telling me what pIC50 value was observed for O=C1C(O)=C(c2ccccc2)C(c2ccncc2)N1CCCn1ccnc1 (centres unmarked) ?
Solution: 5.07

Exercise: Which measured pIC50 value corresponds to CCCC(=O)C1=C(O)C(=O)N(c2ccc3[nH]cnc3c2)C1C1CCOC1 (centres unmarked) ?
Solution: 5.74

Exercise: Find the recorded pIC50 belonging to CC1=C(O)C(=O)N(CCCn2ccnc2)C1c1ccc(C)c(C)c1 (centres unmarked) and report it.
Solution: 6.40

Exercise: Quick one: pIC50 of CCCC(=O)C1=C(O)C(=O)N(c2ccc3[nH]cnc3c2)C1c1nccs1 (centres unmarked) ?
Solution: 5.66

Exercise: Could you tell me which pIC50 is on file for CC(C)CC(=O)C1=C(O)C(=O)N(c2ccc3[nH]cnc3c2)C1c1ccc(-c2ccccn2)cc1 (centres unmarked) ?
Solution: 6.89

Exercise: Reported pIC50 for CC(C)(C)C(=O)C1=C(O)C(=O)N(c2ccc3[nH]cnc3c2)C1c1nccs1 (centres unmarked) : what is it?
Solution: 5.20

Exercise: Entry CC(=O)C1=C(O)C(=O)N(c2ccc3[nH]cnc3c2)C1c1cc[n+]([O-])cc1 (centres unmarked) : reported pIC50 = ?
Solution: 5.92
